# assay_name: Selectivity index, ratio of IC50 for rat L6 cells to IC50 for chloroquine-sensitive IEF stage of Plasmodium falciparum NF54 infected in human RBC
# Type: toxicity
# test_settings: read-out: Ratio IC50
quantity_measured: selectivity ratio
Answers are plain numbers.

// query Given CC(C)=CCC/C(C)=C/CC/C(C)=C/Cc1cc2c(cc1O)C1=C(C(=O)C3=C(C1=O)S(=O)(=O)CCN3)C(/C=C(\C)CC/C=C(\C)CCC=C(C)C)O2 (stereo unspecified) , state its recorded selectivity ratio.
// result 17

* * *

Can you tell me MIC for the items I'm about to list?
# System: Staphylococcus aureus
# assay_name: Antibacterial activity against Staphylococcus aureus ATCC 25923 after 24 hrs by broth microdilution method
# Type: functional
# test_settings: ATCC 25923, 24 h

molecule	MIC
CN[C@@H]1[C@H](O[C@H]2[C@H](O[C@H]3[C@H](O)[C@@H](O)[C@H](N=C(N)N)[C@@H](O)[C@@H]3N=C(N)N)O[C@@H](C)[C@]2(O)C=O)O[C@@H](CO)[C@H](O)[C@H]1O [STREPTOMYCIN]	21.5 µM
CC(C)=CCc1cc2c(cc1O)C1=C(C(=O)C3=C(C1=O)S(=O)(=O)CCN3)C(C=C(C)C)O2 (stereo unspecified)	> 200 µM
CC(C)=CCC/C(C)=C/CC/C(C)=C/Cc1cc(O)cc2c1OC(/C=C(\C)CC/C=C(\C)CCC=C(C)C)C1=C2C(=O)C2=C(NCCS2(=O)=O)C1=O (stereo unspecified)	> 200 µM
CC(C)=CCC/C(C)=C/CC/C(C)=C/Cc1cc2c(cc1O)C1=C(C(=O)C3=C(NCCS3(=O)=O)C1=O)C(/C=C(\C)CC/C=C(\C)CCC=C(C)C)O2 (stereo unspecified)	> 200 µM
CC(C)=CCc1cc(O)cc2c1OC(C=C(C)C)C1=C2C(=O)C2=C(NCCS2(=O)=O)C1=O (stereo unspecified)	> 200 µM

Please look at the following molecule next.
// query Please report the recorded MIC for CC(C)=CCc1cc2c(cc1O)C1=C(C(=O)C3=C(NCCS3(=O)=O)C1=O)C(C=C(C)C)O2 (stereo unspecified) .
// result > 200 µM
